Biological target: T1, IL10Rα/IL2Rγ receptor (human) (UniProt Q13651)
T1 sequence (looked up) 1: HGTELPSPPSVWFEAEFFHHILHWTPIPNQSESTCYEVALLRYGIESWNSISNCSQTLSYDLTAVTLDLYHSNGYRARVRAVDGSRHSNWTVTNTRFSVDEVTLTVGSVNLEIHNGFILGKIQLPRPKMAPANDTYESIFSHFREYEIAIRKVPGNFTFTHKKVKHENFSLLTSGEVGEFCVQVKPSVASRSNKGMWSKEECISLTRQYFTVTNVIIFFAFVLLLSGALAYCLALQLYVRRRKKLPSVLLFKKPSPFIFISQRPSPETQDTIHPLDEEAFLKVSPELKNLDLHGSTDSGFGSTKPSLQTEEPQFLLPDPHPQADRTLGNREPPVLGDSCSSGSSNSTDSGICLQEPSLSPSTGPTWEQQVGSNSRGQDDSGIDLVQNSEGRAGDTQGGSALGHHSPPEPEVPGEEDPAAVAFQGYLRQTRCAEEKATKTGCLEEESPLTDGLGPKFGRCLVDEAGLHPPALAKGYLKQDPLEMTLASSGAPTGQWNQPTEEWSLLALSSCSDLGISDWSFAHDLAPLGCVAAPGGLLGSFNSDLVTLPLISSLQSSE
T1 sequence (looked up) 2: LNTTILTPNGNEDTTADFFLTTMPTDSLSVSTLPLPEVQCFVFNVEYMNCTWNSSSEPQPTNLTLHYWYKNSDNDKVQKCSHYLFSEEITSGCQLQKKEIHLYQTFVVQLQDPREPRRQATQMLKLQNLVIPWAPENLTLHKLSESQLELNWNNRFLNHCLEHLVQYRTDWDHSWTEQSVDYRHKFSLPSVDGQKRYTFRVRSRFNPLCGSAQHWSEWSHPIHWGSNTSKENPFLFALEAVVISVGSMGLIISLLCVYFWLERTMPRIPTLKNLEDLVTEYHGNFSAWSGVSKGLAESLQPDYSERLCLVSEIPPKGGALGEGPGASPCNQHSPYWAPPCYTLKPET
Experiment: cell-based or functional assay

| binder | reading unit | IFNγ secretion, CD8 T cells, at 1 µM |
| --- | --- | --- |
| hIL10Ra_VHH14 - hIL2Rg_VHH19, linker GGGS, tag his (bispecific antibody, not shown: small tags and cut ends) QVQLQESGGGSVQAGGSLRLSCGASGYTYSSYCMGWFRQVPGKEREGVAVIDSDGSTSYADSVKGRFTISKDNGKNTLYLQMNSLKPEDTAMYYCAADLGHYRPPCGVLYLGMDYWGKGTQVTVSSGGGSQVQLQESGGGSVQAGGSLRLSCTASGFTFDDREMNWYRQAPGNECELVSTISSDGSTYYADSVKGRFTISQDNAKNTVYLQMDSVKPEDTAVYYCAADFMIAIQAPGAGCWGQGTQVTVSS | pg/mL | 130000 |
